Assay system: complex formed between CRBN/DDB1 and lenalidomide (UniProt Q96SW2 1-442; Q16531 2-1140)
Sequence (Q96SW2 whole entry, chain 1 of 2): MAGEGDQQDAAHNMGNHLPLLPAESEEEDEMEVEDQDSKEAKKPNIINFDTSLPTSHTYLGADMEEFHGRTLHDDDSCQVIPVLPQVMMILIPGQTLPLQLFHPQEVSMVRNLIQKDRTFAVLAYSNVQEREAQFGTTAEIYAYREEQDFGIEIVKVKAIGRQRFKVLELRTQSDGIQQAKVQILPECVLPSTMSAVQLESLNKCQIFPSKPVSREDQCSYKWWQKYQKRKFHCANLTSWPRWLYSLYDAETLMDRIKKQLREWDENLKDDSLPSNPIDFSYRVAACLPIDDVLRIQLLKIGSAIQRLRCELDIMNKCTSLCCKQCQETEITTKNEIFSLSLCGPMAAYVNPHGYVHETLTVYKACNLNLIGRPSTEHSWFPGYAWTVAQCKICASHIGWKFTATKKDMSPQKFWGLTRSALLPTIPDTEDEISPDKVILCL
Sequence (Q16531 2-1140, chain 2 of 2): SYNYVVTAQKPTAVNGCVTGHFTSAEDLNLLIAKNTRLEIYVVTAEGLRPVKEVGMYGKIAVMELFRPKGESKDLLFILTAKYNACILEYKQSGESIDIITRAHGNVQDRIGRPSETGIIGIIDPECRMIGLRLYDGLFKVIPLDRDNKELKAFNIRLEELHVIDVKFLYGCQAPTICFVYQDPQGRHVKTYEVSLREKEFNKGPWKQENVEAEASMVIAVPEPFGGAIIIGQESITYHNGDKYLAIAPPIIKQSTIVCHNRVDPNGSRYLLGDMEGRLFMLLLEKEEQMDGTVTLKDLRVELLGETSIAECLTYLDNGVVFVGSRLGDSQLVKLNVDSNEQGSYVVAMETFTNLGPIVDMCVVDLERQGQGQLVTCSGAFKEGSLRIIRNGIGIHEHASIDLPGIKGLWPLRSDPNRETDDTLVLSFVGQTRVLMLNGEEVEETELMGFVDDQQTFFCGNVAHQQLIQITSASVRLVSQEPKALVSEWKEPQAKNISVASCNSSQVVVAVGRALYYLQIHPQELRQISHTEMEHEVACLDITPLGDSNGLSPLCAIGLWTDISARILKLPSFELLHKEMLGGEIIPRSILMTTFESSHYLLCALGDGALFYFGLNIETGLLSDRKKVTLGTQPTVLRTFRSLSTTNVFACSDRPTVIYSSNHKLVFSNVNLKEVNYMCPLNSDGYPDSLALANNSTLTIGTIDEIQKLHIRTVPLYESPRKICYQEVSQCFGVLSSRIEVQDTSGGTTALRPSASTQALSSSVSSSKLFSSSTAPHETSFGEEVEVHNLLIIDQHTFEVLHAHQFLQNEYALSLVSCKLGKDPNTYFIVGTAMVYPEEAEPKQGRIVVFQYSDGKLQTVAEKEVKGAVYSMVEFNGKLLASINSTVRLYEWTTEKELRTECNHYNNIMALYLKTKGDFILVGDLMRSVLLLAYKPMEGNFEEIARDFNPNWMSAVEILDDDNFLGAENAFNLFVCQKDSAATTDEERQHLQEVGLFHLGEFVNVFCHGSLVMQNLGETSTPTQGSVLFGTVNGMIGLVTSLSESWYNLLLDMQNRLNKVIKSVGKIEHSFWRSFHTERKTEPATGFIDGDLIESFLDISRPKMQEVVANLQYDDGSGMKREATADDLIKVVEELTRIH
Protocol notes: TR-FRET displacement; lenalidomide
Assay endpoint: IC50 (nM)

Binder | Assay endpoint | Numeric value
iTAG2 (DCD23mut) (designed binder) PNVLMVHNESHTGEIPLQCEICGFTCEQAGNLLNHIELHSGEIPFKCHLCNYACRRRDAL | IC50 | 860
iTAG1 (DCD23) (designed binder) PNVLMVHKRSHTGERPLQCEICGFTCRQKGNLLRHIKLHSGEKPFKCHLCNYACRRRDAL | IC50 | 78.7
